# ASSAY EXPLANATION: Drug excretion in Beagle dog urine assessed as nonconjugated form of compound at 10 mg/kg, po after 4 days by two-dimensional TLC analysis
# Assay type: ADME, organism-based, Canis lupus familiaris
# Set-up: dose 10 mg/kg, route oral
# MEASUREMENT CONDITIONS: read-out: Drug excretion

STRUCTURE NOTATION | UNIT SPEC | dose excreted at 96 h
O=C1CN=C(c2ccccc2Cl)c2cc(Cl)ccc2N1 | % | 1.1
